# test.description: in vivo
# assay.context: mouse, in vivo, ip
reported.endpoint: LD50 (mg/kg)
Supply the numeric figure in mg/kg, leaving out any unit text.

Inquiry: Given CC1=C(C(=O)OC23CC4CC(CC(C4)C2)C3)C(c2ccccc2OC(F)F)C(C(=O)OC23CC4CC(CC(C4)C2)C3)=C(C)N1 (stereo not shown) [Present compound] , respond with its LD50.
Reply text: 8400
